compounds and their reported melting point

> print(dat)
                                        mol  recorded.measurement
1  CN(C)Cc1noc(-c2nn(Cc3ccccc3)c3ccccc23)n1           93 to 95 °C
2         CCOC(=O)COc1nc(-c2ccccc2)nc(C)c1C           90 to 91 °C
3  CNCCOc1ccc(C(=C(c2ccccc2)C(F)(F)F)c2ccc(OCOC)cc2)cc1           87 to 90 °C
4            C=C(C)C(=O)NCCCNC(=O)OC(C)(C)C               85.8 °C
5          O=C(O)c1cc([N+](=O)[O-])cc(Br)n1         172 to 173 °C

Alright, here's another compound for you.
Prompt: Look up and state reported melting point for Cc1cc2ncn(Cc3ccc(N)cc3)c2cc1C
Response: 238 to 239 °C
